- TEST_NAME: Inhibitory activity against porcine heart Adenylate deaminase (AMPDA)
- Parameters: species or system Sus scrofa
READOUT_KIND: Ki (µM)
Quick reminder: number only, in µM, skip the unit.

| MOLECULE | Ki / µM |
| --- | --- |
| O=C(O)c1ccccc1OCCn1cnc2c1NC=NCC2O (stereo not drawn) | 31.3 |
| O=C(O)Cc1ccc(Cn2cnc3c2NC=NCC3O)cc1 (stereo not drawn) | 92.2 |

Input O=C(O)c1ccc(Cn2cnc3c2NC=NCC3O)o1 (stereo not drawn) . Output Ki: 72

Summary for this molecule, CC(C)c1cccc(C(=O)O)c1CCCn1cnc2c1NC=NCC2O (stereo not drawn) : Ki is 83.1

response.value for O=C(O)c1ccccc1SCCn1cnc2c1NC=NCC2O (stereo not drawn) (field: Ki) = 4.5

Ki for CCOC(=O)c1cc(Br)cc(CCn2cnc3c2NC=NCC3O)c1 (stereo not drawn) is 2.7

The measured Ki associated with CCOC(=O)c1cc(CCn2cnc3c2NC=NCC3O)cc(-c2ccccc2)c1 (stereo not drawn) reads 18

Recorded result, O=C(O)c1cc(CCn2cnc3c2NC=NCC3O)ccc1F (stereo not drawn) , Ki: 0.16

Ki reading for O=C(O)c1cccc(OCCn2cnc3c2NC=NCC3O)c1 (stereo not drawn) : 31.8

So, CCCc1ccc(C(=O)O)cc1CCn1cnc2c1NC=NCC2O (stereo not drawn) ? Its Ki was 0.19

So for Cc1ccc(C(=O)OCc2ccccc2)cc1CCn1cnc2c1NC=NCC2O (stereo not drawn) , the logged Ki turned out to be 8.1

Item: COC(=O)c1cccc(CCCn2cnc3c2NC=NCC3O)c1 (stereo not drawn) | Ki: 24.3

Summary for this molecule, Cc1ccc(C(=O)O)c(CCCn2cnc3c2NC=NCC3O)c1 (stereo not drawn) : Ki is 24

response.value for COC(=O)c1ccc(Cn2cnc3c2NC=NCC3O)cc1 (stereo not drawn) (field: Ki) = 170

Measured Ki of Cc1ccc(C(=O)O)cc1CCCn1cnc2c1NC=NCC2O (stereo not drawn) : 5.2

Per the record, COC(=O)c1ccc(C)c(CCCn2cnc3c2NC=NCC3O)c1 (stereo not drawn) has Ki of 22
